// data source = ChEMBL document CHEMBL3885861

organism: Rattus norvegicus; assay: Open TG-GATES - Regimen: Daily Repeat; format: toxicity, organism-based, Sprague-Dawley; design: regimen Daily Repeat, gender Male, age 6 weeks; settings: in vivo, po, 1000 mg/kg, […], tissue Plasma, route gavage, dose level High, time 7 day
Items are presented alongside their recorded gamma-GTP.

{"Compound": "CCN1CCCC1CNC(=O)c1cc(S(N)(=O)=O)ccc1OC (centres undefined) [SULPIRIDE]", "gamma-GTP": "1 IU/L"}
{"Compound": "O=C(O)c1cccnc1 [NIACIN]", "gamma-GTP": "1.8 IU/L"}
{"Compound": "CC(C)(S)[C@@H](N)C(=O)O [PENICILLAMINE]", "gamma-GTP": "1 IU/L"}
{"Compound": "O=C(N[C@H](CO)[C@H](O)c1ccc([N+](=O)[O-])cc1)C(Cl)Cl [CHLORAMPHENICOL]", "gamma-GTP": "1 IU/L"}
